Test: collision cross section (TIMS, N2 drift gas) of the primary ion; higher = larger gas-phase ion size
Settings: ionization mode: ESI+; ion species: [M+H]+
Assay endpoint: collision cross section (Å²)
Could you give me the number in Å²? Just the number is fine.

Answered examples (3):
compound="CCN(CC)c1nc(=O)cc(C)[nH]1 [2-(Diethylamino)-6-methylpyrimidin-4-one]" units_text=Å² measurement=138.67
compound="Nc1ccc(Oc2ccc(Cl)cc2Cl)cc1C(=O)O [Aminobifenox acid]" units_text=Å² measurement=173.06
compound="O=c1[nH]c2c(c(=O)n1C1CCCCC1)CCC2 [Lenacil]" units_text=Å² measurement=157.13

Entry Cn1c(=O)c2[nH]cnc2n(C)c1=O [Theophyllin] , collision cross section reported as 135.99

Entry under test: CC(C)C1C2CCC1c1c(NC(=O)c3cn(C)nc3C(F)F)cccc12 (centres undefined) [Isopyrazam] . Its collision cross section was 185.35

In plain terms, Cn1sc(Cl)cc1=O [Methylchloroisothiazolinone] has a documented collision cross section of 120.77

Reported collision cross section of COc1cc(Cl)c(OC)cc1N [4-Chloro-2,5-dimethoxyaniline] : 143.89

// COc1cc(C2c3cc4c(cc3C(OC3OC5COC(C)OC5C(O)C3O)C3COC(=O)C23)OCO4)cc(OC)c1O (centres undefined) [Etoposide] : collision cross section value = 250.37

----------
Assay: collision cross section (TIMS, N2 drift gas) of the primary ion; higher = larger gas-phase ion size
Details: ionization mode: ESI+; ion species: [M+H]+
collision cross section reference
Enter your answer as a number in Å²; do not include the unit.

These solved cases illustrate the format of a correct answer.
molecule=CCNc1nc(NCC)nc(SC)n1 measurement=149.02
molecule="Cc1c(NC=O)c(=O)n(-c2ccccc2)n1C [N-Formyl-4-aminoantipyrine]" measurement=149.16
molecule=CC(C)N(C(=O)CCl)c1ccccc1 measurement=143.81
molecule="CCOP(=O)(OCC)OCC [Triethylphosphate]" measurement=131.26
molecule=CN(C)CCC=C1c2ccccc2CCc2ccccc21 measurement=167.84

Item: O=P(c1ccccc1)(c1ccccc1)c1ccccc1 [Triphenylphosphine oxide] | collision cross section: 163

The reported collision cross section of the molecule `Nc1ccc(Cc2ccc(N)c(Cl)c2)cc1Cl` was 173.31

collision cross section measured on `CC(C)Nc1ccc(Nc2ccccc2)cc1` = 171.67

The reported value for `CN/C(=C\[N+](=O)[O-])NCCSCc1ccc(CN(C)C)o1` in terms of collision cross section is 168.6

----------
# reported reversed-phase LC retention time; entries follow
Assay: reversed-phase LC retention time (C18, 15 min MeOH gradient); higher = more hydrophobic / later elution
Details: ionization mode: ESI+; ion species: [M+H]+
Express the result in min but write the number alone.

Example compounds with recorded reversed-phase LC retention time:
compound=CC(C)N(C(=O)COc1nnc(C(F)(F)F)s1)c1ccc(F)cc1 measurement=14.9
compound="CCCCCCCCCC(=O)N(C)C [N,N-Dimethyldecan-1-amide]" measurement=16.1
compound=CN=C(NC#N)NCCSCc1nc[nH]c1C measurement=6.06
compound="Cc1cccc(Nc2ccncc2S(=O)(=O)NC(=O)NC(C)C)c1 [Torasemide]" measurement=11.5
compound="NC(=O)/N=C1\\SCCN1Cc1ccc(Cl)nc1 [Thiacloprid amide]" measurement=8.75

Moving on to the next compound.
For this compound ( CN(C(=O)CO)c1c(I)c(C(=O)NCC(O)CO)c(I)c(C(=O)NCC(O)CO)c1I (centres undefined) ), measured reversed-phase LC retention time is 5.52

From: the supplement of paper PMC12613149
